Molecular target: glutathione-S-transferase (GST) tagged LXRalpha LBD (ligand binding domain) (Homo sapiens, UniProt Q13133)
Construct: purchased Invitrogen pv4655
Sequence (Q13133 209-447 limits assumed): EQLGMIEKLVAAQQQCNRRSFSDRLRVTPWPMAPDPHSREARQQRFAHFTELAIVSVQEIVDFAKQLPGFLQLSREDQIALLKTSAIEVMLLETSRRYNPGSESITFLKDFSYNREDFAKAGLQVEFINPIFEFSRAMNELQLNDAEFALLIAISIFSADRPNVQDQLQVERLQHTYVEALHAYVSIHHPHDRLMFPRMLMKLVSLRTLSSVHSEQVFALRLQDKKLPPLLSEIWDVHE
Test: LanthaScreen TR-FRET Liver X Receptor Coactivator Assay, LXR alpha-LBD
Format: biochemical
Details: efficacy in relation to reference dual agonist T1317; read-out: LXR alpha activity at max dose (%) (Emax)
Exercise: for every item that follows, state its recorded Emax.
Quick reminder: number only, in %, skip the unit.

For reference, reported Emax for CO[C@@](C(=O)N1CCN(c2ncc(-c3ccc(C(=O)N(C)C)c(Cl)c3)cc2C#N)CC1)(c1ccccc1)C(F)(F)F [Example 2-35] stands at 62

For reference, reported Emax for CN(C)C(=O)c1ccc(-c2cnc(N3CCN(C(=O)OCc4ccccc4Cl)CC3)c(C#N)c2)cc1Cl [Example 3-9] stands at 39

For reference, reported Emax for CN(CCO)C(=O)c1ccc(-c2cnc(N3CCN(C(=O)OC(C)(C)C)CC3)c(C#N)c2)cc1Cl [Example 5-1] stands at 68

For reference, reported Emax for CN(C)C(=O)c1ccc(-c2cnc(N3CCN(C(=O)OCc4ccccc4C(F)(F)F)CC3)c(C#N)c2)cc1Cl [Example 3-11] stands at 39

For reference, reported Emax for COc1ccc2nc(CCN(C)C(=O)c3ccc(-c4cnc(N5CCN(C(=O)OC(C)(C)C)CC5)c(C#N)c4)cc3Cl)[nH]c2c1 [Example 5-33] stands at 52

---

Exercise: for every item that follows, state its recorded Emax.
Biological target: glutathione-S-transferase (GST) tagged LXRbeta LBD (ligand binding domain) (Homo sapiens, UniProt P55055)
Construct: purchased Invitrogen pv4658.pps
Sequence (P55055 222-460 limits assumed): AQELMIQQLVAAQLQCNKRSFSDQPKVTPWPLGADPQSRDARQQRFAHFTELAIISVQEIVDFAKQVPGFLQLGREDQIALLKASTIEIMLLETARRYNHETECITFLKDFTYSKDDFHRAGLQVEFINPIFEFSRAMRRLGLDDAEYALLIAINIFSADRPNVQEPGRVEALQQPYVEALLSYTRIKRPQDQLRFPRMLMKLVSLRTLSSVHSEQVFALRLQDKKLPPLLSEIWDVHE
Assay: LanthaScreen TR-FRET Liver X Receptor Coactivator Assay, LXR beta-LBD
Format: biochemical
Conditions: efficacy in relation to reference dual agonist T1317; read-out: LXR beta activity at max dose (%) (Emax)
Quick reminder: number only, in %, skip the unit.

For reference, reported Emax for CC(C)(C)OC(=O)N1CCN(c2ncc(-c3ccc(C(N)=O)c(Cl)c3)cc2C#N)CC1 [Example 5-2] stands at 94

For reference, reported Emax for CN(C)C(=O)c1ccc(-c2ccc(N3CCN(S(=O)(=O)c4c(Cl)cccc4Cl)CC3)c(Cl)c2)cc1Cl [Example 4-8] stands at 101

For reference, reported Emax for C#Cc1cc(-c2ccc(C(=O)N(C)C)c(Cl)c2)cnc1N1CCN(C(=O)OC(C)(C)C)CC1 [Example 9-5] stands at 59

For reference, reported Emax for CN(C)C(=O)c1ccc(-c2cnc(N3CCN(C(=O)OCc4c(Cl)cccc4Cl)CC3)c(C#N)c2)cc1Cl [Example 3-1] stands at 119

For reference, reported Emax for CN(C)C(=O)c1ccc(-c2cnc(N3CCN(C(=O)c4c(F)cccc4Cl)CC3)c(C#N)c2)cc1Cl [Example 2-21] stands at 59

---

Target: glutathione-S-transferase (GST) tagged LXRbeta LBD (ligand binding domain) (Homo sapiens, UniProt P55055)
Construct: purchased Invitrogen pv4658.pps
Experiment: LanthaScreen TR-FRET Liver X Receptor Coactivator Assay, LXR beta-LBD
Assay type: biochemical
Settings: efficacy in relation to reference dual agonist T1317; read-out: LXR beta activity at max dose (%) (Emax)
property-name: Emax (%)
Quick reminder: number only, in %, skip the unit.

For reference, reported Emax for CN(C)C(=O)c1ccc(-c2cnc(N3CCN(C(=O)OCc4cncs4)CC3)c(C#N)c2)cc1Cl [Example 3-3] stands at 62

For reference, reported Emax for CN(C)C(=O)c1ccc(-c2cnc(N3CCN(C(=O)OCc4ccccc4C(F)(F)F)CC3)c(C#N)c2)cc1Cl [Example 3-11] stands at 96

For reference, reported Emax for CN(C)C(=O)c1ccc(-c2ccc(N3CCN(C(=O)c4c(F)cccc4C(F)(F)F)CC3)cc2)cc1Cl [Example 4-12] stands at 83

For reference, reported Emax for CN(C)C(=O)c1ccc(-c2ccc(N3CCN(C(=O)c4c(F)cccc4Cl)CC3)c(Cl)c2)cc1Cl [Example 4-5] stands at 88

For reference, reported Emax for CN(C)C(=O)c1ccc(-c2cnc(N3CCN(C(=O)[C@H](O)C(F)(F)F)CC3)c(C#N)c2)cc1Cl [Example 2-11] stands at 77

For reference, reported Emax for CN(C)C(=O)c1ccc(-c2cnc(N3CCN(C(=O)C(O)(c4ccccc4Cl)C(F)(F)F)CC3)c(C#N)c2)cc1Cl (stereo not drawn) [Example 2-38] stands at 69

For reference, reported Emax for CC(C)C(O)(C(=O)N1CCN(c2ncc(-c3cc(Cl)c(C(=O)N(C)C)c(Cl)c3)cc2C#N)CC1)C(F)(F)F (single isomer, unassigned) [Example 7-5] stands at 93

For reference, reported Emax for CC(C)(C)OC(=O)N1CCN(c2ncc(-c3ccc(C(=O)N(CCO)CCO)c(Cl)c3)cc2C#N)CC1 [Example 5-19] stands at 93

For reference, reported Emax for CN(C)C(=O)c1ccc(-c2ccc(N3CCN(C(=O)c4c(F)cccc4C(F)(F)F)CC3)c(Cl)c2)cc1Cl [Example 4-7] stands at 83

Value source: patent US10239849B2
